# Tested on: Acanthamoeba castellanii trophozoites
# METHOD: Activity against Acanthamoeba castellanii trophozoites
# Assay type: cell-based
# DETAILS: trophozoites, n = 2, Table 6, read-out: Acanthamoeba castellanii IC50
# Method: Two Acanthamoeba species (Acanthamoeba castellanii—ATCC50370 and Acanthamoeba culbertsoni—ATCC30171) were bought from the American Type Culture Collection (ATCC) and one species (Acanthamoeba healyi) was donated from the Centers for Disease Control and Prevention (CDC) for our experimentations. Trophozoites were thawed and grown in 10 mL of a nutrient rich Peptose-Glucose (PG) media. […]
pIC50: −log10 of the molar value.
OBSERVATION TYPE: pIC50

a: CC(C)NC(=N)c1ccc2nc(-c3ccc(Oc4ccc(-c5nc6ccc(C(=N)NC(C)C)cc6[nH]5)cc4C#N)c(F)c3)[nH]c2c1 [X]
b: N=C(c1ccc2nc(-c3ccc(Oc4ccc(-c5nc6ccc(C(=N)N7CCOCC7)cc6[nH]5)cc4)cc3)[nH]c2c1)N1CCOCC1 [BE]
Inquiry: Quick check, higher pIC50 between a and b ? Answer with the label corresponding to your selection.
Reply text: a
(a: 6.21, b: 5.31)

A: CC(C)NC(=N)c1ccc2nc(-c3ccc(N(c4ccccc4)c4ccc(-c5nc6ccc(C(=N)NC(C)C)cc6[nH]5)cc4)cc3)[nH]c2c1 [BG]
B: CC(C)NC(=N)c1ccc2nc(-c3ccc(Oc4c(F)cc(-c5nc6ccc(C(=N)NC(C)C)cc6[nH]5)cc4F)c(F)c3)[nH]c2c1 [AC]
C: COc1ccc(-c2nc3ccc(-c4nc5ccc(C6=NCCCCN6)cc5[nH]4)cc3[nH]2)cc1O [AM]
D: CC(C)NC(=N)c1ccc2nc(-c3ccc(Nc4ccc(-c5nc6ccc(C(=N)NC(C)C)cc6[nH]5)cc4)cc3)[nH]c2c1 [Compound AY]
Inquiry: Thanks in advance: please rank these 4 entries by pIC50, highest to lowest. Thanks in advance for listing the labels in the requested order.
Reply text: B, C, A, D
(B: 5.99, C: 5.71, A: 5.51, D: 5.22)
